// data source = patent US4966896A

Tested on: second instar larvae
test protocol: Mortality of second instar larvae on pot-grown cabbage treated with a 1000 ppm suspension (Test Example 2)
Type: in vivo
condition label: 48 h
Item-by-item account of mortality at 1000 ppm
Give a bare numeral; the unit % is implied.

CCCNS(=O)(=O)NC(=O)N(C)C(=O)Oc1cccc2c1OC(C)(C)C2 [compound 15]
100
CCNS(=O)(=O)NC(=O)N(C)C(=O)Oc1cccc2c1OC(C)(C)C2 [Compound No. 3]
100
CNS(=O)(=O)NC(=O)N(C)C(=O)Oc1cccc2c1OC(C)(C)C2 [Compound No. 2]
100
CN(C(=O)NS(=O)(=O)Cl)C(=O)Oc1cccc2c1OC(C)(C)C2 [Compound No. 1]
100

# evaluate next
Q: Given the entry C#CCNS(=O)(=O)NC(=O)N(C)C(=O)Oc1cccc2c1OC(C)(C)C2 [compound 7] , report its measured mortality at 1000 ppm.
Ans: 100

---

Test system: second instar larvae
test protocol: Mortality of second instar larvae on pot-grown cabbage treated with a 1000 ppm suspension (Test Example 2)
Type: in vivo
condition label: 48 h
Item-by-item account of mortality at 1000 ppm
Give a bare numeral; the unit % is implied.

Worked examples follow.
CC(C)NS(=O)(=O)NC(=O)N(C)C(=O)Oc1cccc2c1OC(C)(C)C2 [Compound No. 4]
100
CCCCNS(=O)(=O)NC(=O)N(C)C(=O)Oc1cccc2c1OC(C)(C)C2 [Compound No. 5]
100
CCC(C)NS(=O)(=O)NC(=O)N(C)C(=O)Oc1cccc2c1OC(C)(C)C2 (stereo not shown) [compound 16]
100

Q: Given the entry CN(C(=O)NS(=O)(=O)NC(C)(C)C)C(=O)Oc1cccc2c1OC(C)(C)C2 [compound 17] , report its measured mortality at 1000 ppm.
Ans: 100

---

Item-by-item account of LD50 at 168 h
test protocol: Acute oral toxicity in mice (Toxicity Test Example)
condition label: mouse, in vivo, male mice, 7 days after administration, Litchfield-Wilcoxon Method
Experimental: Representative examples of the compound of this invention were administered orally to mice (.male.) and the acute toxicities thereof were tested. LD50 was calculated from the percentage of dead mice according to the Litchfield-Wilcoxon Method 7 days after the administration.
Give a bare numeral; the unit mg/kg is implied.

CCNS(=O)(=O)NC(=O)N(C)C(=O)Oc1cccc2c1OC(C)(C)C2
170
CCCCNS(=O)(=O)NC(=O)N(C)C(=O)Oc1cccc2c1OC(C)(C)C2
200

# evaluate next
Q: Given the entry CNC(=O)Oc1cccc2c1OC(C)(C)C2 [Control] , report its measured LD50 at 168 h.
Ans: 5
